The measurements presented in this section are drawn from patent US20190248902A1.

Target: T1, human ASGR-1 (wild type) (human, UniProt P07306 1-291)
T1 construct: also called wt ASGR1; huASGR-1
T1 sequence: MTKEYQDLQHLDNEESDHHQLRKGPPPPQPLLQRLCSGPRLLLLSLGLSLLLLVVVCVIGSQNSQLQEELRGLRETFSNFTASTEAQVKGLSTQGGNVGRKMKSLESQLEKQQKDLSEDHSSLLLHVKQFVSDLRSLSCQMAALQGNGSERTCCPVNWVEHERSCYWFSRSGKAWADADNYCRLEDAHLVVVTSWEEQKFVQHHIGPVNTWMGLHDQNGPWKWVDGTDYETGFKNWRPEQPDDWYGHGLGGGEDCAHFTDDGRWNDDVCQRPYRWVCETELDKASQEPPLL
Test: FACS ratio: 65C12 geomean / this mAb geomean
Assay Readout: Expression Normalization to mAb 65C12
Just the number, please, no unit after it.

Binder	Assay Readout	Numeric Result
72G9 (antibody, V domains shown, mAb) VH: EVQLVESGGGLVKPGGSLRLSCAASGFTFSSYSMNWVRQAPGKGLEWVSSISGSSSYIYYADSVKGRFTISRDNAKNSLYLQMNSLRAEDTAVYFCARGGSRGFDPWGQGTLVTVSS VL: DIQMTQSPSSLSASVGDRVTITCRASQSITSYLNWYQQKPGKAPKLLIYTASSLQSGVPSRFSGSGSGTDFTLTISSLQPEDFATYYCQQSHSFPFTFGPGTKVDIK	Expression Normalization to mAb 65C12	1.54

Now for the binder whose Expression Normalization to mAb 65C12 we want.
Report Expression Normalization to mAb 65C12 for 25A4 (antibody, V domains shown, mAb) VH: QVLLVQSGAEVKRPGASVKVSCKASGYTFTNYDINWVRQATGQGLEWMGWMYPNSGNTGYAQKFQGRVTMTRNTSISTAYMELSSLRSEDTAVYYCASSSGWYYFDYWGQGTLVTVSS VL: DIVMTQFPDSLAVSLGERATIKCKSSQSVLYSSHNNNYLAWYQQKPGQPPKLLLYWASTRESGVPDRFSGSGSGTEFTLTISSLEAEDVAVYYCQQYYSTPPTFGQGTKVEIK 1.01
